assay_info: Dose toxicity and toxicokinetics study in rats
Assay type: in vivo
settings: both sexes, rat, in vivo, po; 0.5 mg/kg, Regimen 2, sexes combined
measurement_name: AUC

- O=C1CC[C@H](N2Cc3cc(C(=O)N[C@H](c4ncccc4Cl)C(F)(F)F)ccc3C2=O)C(=O)N1 [Compound 1]: 1200 ng·h/mL

###

System: CYP3A4/5
assay_info: CYP inhibition in human liver microsomes, CYP3A4/5
Format: in vitro ADME
settings: human liver microsomes, CYP3A4/5
pIC50: −log10 of the molar value.
measurement_name: pIC50

* O=C1CC[C@H](N2Cc3cc(C(=O)N[C@H](c4ncccc4Cl)C(F)(F)F)ccc3C2=O)C(=O)N1 [Compound 1] | < 4.52
